Tested on: root meristem cells of Allium cepa
Test: In vitro antimitotic activity and cytogenetic analysis, Allium cepa meristem root model
Type: cell-based
Settings: compounds 1 mg/mL, PC (EMS) 2 × 10^−2 M
Quick list: Chromosome breaks (%) ± SEM per entry.
Numeric answer only, unit % assumed.

Query string: Could you share which Chromosome breaks (%) ± SEM value was measured for `CN(C)c1ccc(C=Nc2nnc(S(=O)(=O)NC(=O)c3ccccc3)s2)cc1` ?
Result string: 2.43

Query string: Could you share which Chromosome breaks (%) ± SEM value was measured for `O=C(NS(=O)(=O)c1nnc(N=Cc2ccccc2)s1)c1ccccc1` ?
Result string: 6.22

Query string: Could you share which Chromosome breaks (%) ± SEM value was measured for `O=C(NS(=O)(=O)c1nnc(N=Cc2ccccc2O)s1)c1ccccc1` ?
Result string: 1.47

Query string: Could you share which Chromosome breaks (%) ± SEM value was measured for `O=C(NS(=O)(=O)c1nnc(N=Cc2ccc(Cl)cc2)s1)c1ccccc1` ?
Result string: 3.36

Query string: Could you share which Chromosome breaks (%) ± SEM value was measured for `COc1ccc(C=Nc2nnc(S(=O)(=O)NC(=O)c3ccccc3)s2)cc1` ?
Result string: 0.96

Query string: Could you share which Chromosome breaks (%) ± SEM value was measured for `O=C(NS(=O)(=O)c1nnc(N=Cc2ccc(O)cc2)s1)c1ccccc1` ?
Result string: 2.72

* * *

Assay: In vitro cytotoxicity by MTT assay, HEK 293
Type: cell-based, human
Details: human, HEK 293 cells, 11.11 μM, read-out: % cytotoxicity (100 − % cell survival) of HEK 293 cell line
outcome measure: cytotoxicity at 72 h, 11.11 µM (%)
Numeric answer only, unit % assumed.

// below: answered molecules
# compound string, value units, cytotoxicity at 72 h, 11.11 µM
data = [
    ("Nc1nnc(S(=O)(=O)NC(=O)c2ccc([N+](=O)[O-])cc2)s1", "%", 39.1),
    ("O=C(NS(=O)(=O)c1nnc(N=Cc2ccc(O)cc2)s1)c1ccccc1", "%", 34.2),
    ("Nc1ccc(S(=O)(=O)Nc2nnc(S(=O)(=O)NC(=O)c3ccccc3N)s2)cc1", "%", 48.2),
]

Query string: Could you share which cytotoxicity at 72 h, 11.11 µM value was measured for `O=C(NS(=O)(=O)c1nnc(N=Cc2ccccc2O)s1)c1ccccc1` ?
Result string: 37.9

Query string: Could you share which cytotoxicity at 72 h, 11.11 µM value was measured for `Nc1ccc(C(=O)NS(=O)(=O)c2nnc(N)s2)cc1` ?
Result string: 46.5

Query string: Could you share which cytotoxicity at 72 h, 11.11 µM value was measured for `Nc1nnc(S(=O)(=O)NC(=O)c2ccccc2N)s1` ?
Result string: 62.3

Query string: Could you share which cytotoxicity at 72 h, 11.11 µM value was measured for `CC(=O)Nc1ccc(S(=O)(=O)Nc2nnc(S(=O)(=O)NC(=O)c3ccc([N+](=O)[O-])cc3)s2)cc1` ?
Result string: 49.9

Query string: Could you share which cytotoxicity at 72 h, 11.11 µM value was measured for `Nc1nnc(S(=O)(=O)NC(=O)c2ccccc2)s1` ?
Result string: 29.5

Query string: Could you share which cytotoxicity at 72 h, 11.11 µM value was measured for `O=C(NS(=O)(=O)c1nnc(N=Cc2ccco2)s1)c1ccccc1` ?
Result string: 36.1

* * *

Experiment: In vitro cytotoxicity by MTT assay, HEK 293
Type: cell-based, human
Details: human, HEK 293 cells, 3.7 μM, read-out: % cytotoxicity (100 − % cell survival) of HEK 293 cell line
Quick list: cytotoxicity at 72 h, 3.7 µM per entry.
State the value, then name its unit.

# compound, reading
rows = [
    ("Nc1ccc(S(=O)(=O)Nc2nnc(S(=O)(=O)NC(=O)c3ccc(Cl)cc3)s2)cc1 [Compound 7g]", "37.2%"),
]

Query string: Could you share which cytotoxicity at 72 h, 3.7 µM value was measured for O=C(NS(=O)(=O)c1nnc(N=Cc2ccco2)s1)c1ccccc1 [Compound 9j] ?
Result string: 35.3%

Query string: Could you share which cytotoxicity at 72 h, 3.7 µM value was measured for Nc1ccc(S(=O)(=O)Nc2nnc(S(=O)(=O)NC(=O)c3cccc([N+](=O)[O-])c3)s2)cc1 [Compound 7f] ?
Result string: 39.5%

Query string: Could you share which cytotoxicity at 72 h, 3.7 µM value was measured for NS(=O)(=O)c1ccc(S(=O)(=O)Nc2cccc3c(Cl)c[nH]c23)cc1 [ISL, indisulam, reference compound] ?
Result string: 55.4%

Query string: Could you share which cytotoxicity at 72 h, 3.7 µM value was measured for Nc1ccc(S(=O)(=O)Nc2nnc(S(=O)(=O)NC(=O)c3ccccc3)s2)cc1 [Compound 7a] ?
Result string: 32.5%

Query string: Could you share which cytotoxicity at 72 h, 3.7 µM value was measured for O=C(NS(=O)(=O)c1nnc(N=Cc2ccccc2O)s1)c1ccccc1 [Compound 9f] ?
Result string: 37.4%

Query string: Could you share which cytotoxicity at 72 h, 3.7 µM value was measured for COc1ccc(C=Nc2nnc(S(=O)(=O)NC(=O)c3ccccc3)s2)cc1 [Compound 9d] ?
Result string: 35.8%

Query string: Could you share which cytotoxicity at 72 h, 3.7 µM value was measured for Nc1ccc(C(=O)NS(=O)(=O)c2nnc(N)s2)cc1 [Compound 4c] ?
Result string: 42.1%

From: paper PMC3973950
